System: phorboid receptor (PDBu receptor) of murine brain membranous fraction (BMF)
Test Name: PDBu binding inhibiting activity (PBIA): inhibition of 3H-PDBu binding to murine brain membranous fraction
Design: species or system mouse
Condition Parameters: concentration 0.8 nM
Classify as follows. Reported Inhibition (%) of binding of PDBu to its receptor greater than or equal to 20%: met. Reported Inhibition (%) of binding of PDBu to its receptor below: not met.

Check if Inhibition (%) of binding of PDBu to its receptor >= 20% (inclusive). Item: CCCCC/C=C\C/C=C\CCCCCCCC(=O)OCC(O)COC(=O)CCCCCCC/C=C\C/C=C\CCCCC [1,3-Dilinolein]
not met

Check if Inhibition (%) of binding of PDBu to its receptor >= 20% (inclusive). Item: CCCCC/C=C\C/C=C\CCCCCCCC(=O)O [Linoleic acid-Na]
not met

Check if Inhibition (%) of binding of PDBu to its receptor >= 20% (inclusive). Item: CCCCCCCCCCCCCCCC(=O)OCC(O)COC(=O)CCCCCCCCCCCCCCC [1,3-Dipalmitin]
not met

Check if Inhibition (%) of binding of PDBu to its receptor >= 20% (inclusive). Item: CC/C=C\C/C=C\C/C=C\CCCCCCCC(=O)OCC(O)CO (centres unmarked) [1-Monolinolenin]
met

Check if Inhibition (%) of binding of PDBu to its receptor >= 20% (inclusive). Item: CCCCCCCC/C=C\CCCCCCCC(=O)OCC(O)CO (centres unmarked) [1-Monoolein]
met

Check if Inhibition (%) of binding of PDBu to its receptor >= 20% (inclusive). Item: CCCCC/C=C\C/C=C\C/C=C\C/C=C\CCCC(=O)OCC(O)CO (centres unmarked) [1-Monoarachidonin]
met

Check if Inhibition (%) of binding of PDBu to its receptor >= 20% (inclusive). Item: CCCCC/C=C\C/C=C\CCCCCCCC(=O)OCC(COC(=O)CCCCCCC/C=C\C/C=C\CCCCC)OC(=O)CCCCCCC/C=C\C/C=C\CCCCC [Trilinolein]
not met

Check if Inhibition (%) of binding of PDBu to its receptor >= 20% (inclusive). Item: CCCCCCCC/C=C\CCCCCCCC(=O)OCC(O)COC(=O)CCCCCCC/C=C\CCCCCCCC [1,3-Diolein]
not met
